Recorded Metric: melting point

Solved entries:
Clc1c[nH]c2ncnc(N3CCCCC3)c12
170 to 172 °C
c1nc(N2CCCCCCC2)c2cc[nH]c2n1
225 to 226 °C
C#Cc1c[nH]c2ncnc(N3CCCCC3)c12
179 to 181 °C
c1nc(N2CCCCCC2)c2cc[nH]c2n1
210 °C

Memo: Clc1c[nH]c2ncnc(N3CCCC4CCCCC43)c12 (stereo not drawn) , reported melting point: 190 to 192 °C

Memo: Cc1cc2c(N(C)C3CCCCC3)ncnc2[nH]1 , reported melting point: 221 °C (dec.)

Memo: CCCC1CCCCN1c1ncnc2[nH]ccc12 (stereo not drawn) , reported melting point: 106 to 107 °C

Memo: Clc1c[nH]c2ncnc(N3CCC4CCCCC43)c12 (stereo not drawn) , reported melting point: 193 °C

Memo: N#Cc1c[nH]c2ncnc(N3CCCCC3)c12 , reported melting point: 209 to 211 °C
